Biological target: Metabotropic glutamate receptor 4 (Homo sapiens)
Sequence (Q14833 whole entry): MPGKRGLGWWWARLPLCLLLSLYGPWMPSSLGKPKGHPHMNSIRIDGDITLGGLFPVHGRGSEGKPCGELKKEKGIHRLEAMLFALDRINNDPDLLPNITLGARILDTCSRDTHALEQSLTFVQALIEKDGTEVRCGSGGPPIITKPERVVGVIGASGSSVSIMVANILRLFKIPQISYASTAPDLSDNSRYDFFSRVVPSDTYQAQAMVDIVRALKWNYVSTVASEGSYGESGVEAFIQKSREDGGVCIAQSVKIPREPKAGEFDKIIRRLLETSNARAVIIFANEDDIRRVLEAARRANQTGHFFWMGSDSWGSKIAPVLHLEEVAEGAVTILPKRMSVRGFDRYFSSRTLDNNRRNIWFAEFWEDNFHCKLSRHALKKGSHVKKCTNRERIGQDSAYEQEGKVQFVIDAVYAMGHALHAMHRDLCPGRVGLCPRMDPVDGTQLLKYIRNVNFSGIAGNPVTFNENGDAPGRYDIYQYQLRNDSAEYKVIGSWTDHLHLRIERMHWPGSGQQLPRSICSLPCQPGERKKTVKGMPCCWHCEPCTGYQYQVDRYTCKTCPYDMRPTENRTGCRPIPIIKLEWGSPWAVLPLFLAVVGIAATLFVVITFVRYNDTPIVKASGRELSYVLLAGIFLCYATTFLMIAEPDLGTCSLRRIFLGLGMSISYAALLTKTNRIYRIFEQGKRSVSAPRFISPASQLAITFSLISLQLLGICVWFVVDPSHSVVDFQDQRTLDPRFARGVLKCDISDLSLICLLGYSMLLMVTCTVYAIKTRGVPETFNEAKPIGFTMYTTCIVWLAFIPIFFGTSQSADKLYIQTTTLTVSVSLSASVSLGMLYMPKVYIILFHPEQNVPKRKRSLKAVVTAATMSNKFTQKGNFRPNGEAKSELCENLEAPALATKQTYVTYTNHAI
Assay: Positive allosteric modulation of human mGlu4 receptor assessed as increase in glutamate-induced calcium mobilization
OBSERVED_PROPERTY: EC50 (nM)

Worked set:
1. Cc1ccc(S(=O)(=O)n2cc(NC(=O)c3ccccn3)cn2)cc1C	148
2. O=C(Nc1ccn(S(=O)(=O)C(F)c2ccccc2F)c1)c1ccccn1 (centres undefined)	1020
3. Cc1cccc(CS(=O)(=O)n2ccc(NC(=O)c3ccccn3)c2)c1	4180
4. O=C(Nc1ccn(S(=O)(=O)c2ccc(F)cc2)c1)c1ccccn1	740

[P] O=C(Nc1ccn(S(=O)(=O)Cc2ccccc2F)c1)c1ccccn1
[Q] O=C(Nc1ccn(S(=O)(=O)c2ccc(Cl)nc2)c1)c1ccccn1
Of P and Q , which carries the smaller reported EC50 figure? Identify your selection by its label.
P
(P: 251 nM, Q: 440 nM)

[a] O=C(Nc1ccn(S(=O)(=O)c2ccc(Cl)cn2)c1)c1ccccn1
[b] Cc1nc(NC(=O)c2ccccn2)sc1S(=O)(=O)Cc1ccc(Cl)cc1F
Between the entries labeled a and b , whose measured EC50 is lower? Output the label that corresponds to your choice.
a

[I] Cc1nc(NC(=O)c2ccccn2)sc1S(=O)(=O)Cc1ccc(F)cc1F
[II] O=C(Nc1ccn(S(=O)(=O)Cc2ccc(F)cc2F)c1)c1ccccn1
Just tell me: smaller EC50 value, I or II ? Selection: enter the item's label.
II

[1] O=C(Nc1ccn(S(=O)(=O)c2ccc(C(F)(F)F)cc2)c1)c1ccccn1
[2] O=C(Nc1ccn(S(=O)(=O)Cc2ccccc2Cl)c1)c1ccccn1
Just tell me: smaller EC50 value, 1 or 2 ? // respond with label for picked entry
2

Taken from ChEMBL document CHEMBL3808274.
